Origin of the recorded values: PubChem BioAssay

Protocol Details: decreased DLD-1 cellular survival, CellTiter-Glo luminescent readout, NPC compound collection, primary HTS (AID 1117346)
Condition Description: DLD-1 viability, CellTiter-Glo luminescence; at 20 µM (top of the series)
Entries and their viability decrease (inhibition)
Could you give me the number in %? Just the number is fine.

Using the record for CN1[C@@H]2CC[C@H]1CC(NC(=O)n1c(=O)[nH]c3ccccc31)C2 (some centres not stated) , state its measured viability decrease (inhibition).
-7.7

Using the record for COc1ccccc1N1CCN(CC(O)COc2cc(OC)c(OC)c(OC)c2)CC1 (configuration not stated) , state its measured viability decrease (inhibition).
8.5

Using the record for `CN(C)CC/C=C1\c2ccccc2COc2ccccc21` , state its measured viability decrease (inhibition).
-3.7

Using the record for C=CCN1C(=O)C(CC(C)C)NC1=S (configuration not stated) , state its measured viability decrease (inhibition).
-17.7

Using the record for C[N+]1(CC2COC(c3ccccc3)(c3ccccc3)O2)CCCCC1 (configuration not stated) , state its measured viability decrease (inhibition).
0.5

Using the record for `COc1ccc(OC(=O)N(CC(=O)O)Cc2ccc(OCCc3nc(-c4ccccc4)oc3C)cc2)cc1` , state its measured viability decrease (inhibition).
91.5
